Measurement Notes: Cytotoxicity against HEK293 cells assessed as cell viability after 1 day by CellTiter-Glo luminescent assay
Condition Description: human
Property Name: CC50 at 24 h

O=C(COc1ccc(-n2ccnc2)cc1)Nc1ccc(-c2ccccc2)cc1 | > 50 µM

###

Measurement Notes: Half life in mouse at 1 mg/kg, iv
Assay type: ADME, organism-based
Condition Description: in vivo
Property Name: half-life

C[C@H](Nc1ccc(-c2ccnn2C)nc1)C(=O)Nc1ccc(-c2cccnc2)cn1 | 114 min

###

Measurement Notes: Oral bioavailability in mouse
Format: ADME, organism-based
Condition Description: in vivo
Property Name: bioavailability

O=C(COc1ccc(-n2ccnc2)cc1)Nc1ccc(-c2ccccc2)cc1 | < 1%
